# log10 Ki per record follows
TARGET_SYSTEM: mu opioid receptor (Rattus norvegicus)
Construct: the forebrains were homogenized in Tris buffer in a Teflon®-glass homogenizer; from tissue; host or cells: forebrain of male Wistar rats (particulate membrane preparation)
EXPERIMENT_DESCRIPTION: Rat brain mu opioid receptor binding assay
EXPERIMENTAL_CONTEXT: rMOR (Ki, nM): Rat mu opioid receptor binding constant, rat forebrain membranes; [3H]DAMGO, 25° C., 2.5 h
Method: Rat Brain Mu Opioid Receptor Binding Assay Procedure: Male, Wistar rats (150-250 g, VAF, Charles River, Kingston, N.Y.) were killed by CO2, and their brains removed and placed immediately in ice cold Tris HCl buffer (50 mM, pH 7.4). […] Analysis: The data from the scintillation counter were used to calculate either the % inhibition compared to control binding (when only a single concentration of test compound was evaluated) or a Ki value (when a range of concentrations tested). […]
Remember, log10 of Ki, in nM.

Some entries whose results are on file:
[
  {
    "MOLECULE": "CN1C2CCCC1CC(=C1c3ccccc3Oc3c(O)cccc31)C2 [Cpd 17]",
    "log10 Ki": 2.34
  },
  {
    "MOLECULE": "Oc1cccc2c1Oc1ccccc1C2=C1CC2CCC(C1)N2Cc1ccccn1 (single isomer, unassigned) [Cpd 59]",
    "log10 Ki": -0.41
  },
  {
    "MOLECULE": "O=C(NCc1ccccc1)c1cccc2c1Oc1ccccc1C2=C1CC2CCC(C1)N2 (single isomer, unassigned) [Cpd 53]",
    "log10 Ki": 3.31
  },
  {
    "MOLECULE": "O=C(Nc1ccccc1)c1cccc2c1Oc1ccccc1C2=C1CC2CCC(C1)N2 (single isomer, unassigned) [Cpd 47]",
    "log10 Ki": 2.47
  },
  {
    "MOLECULE": "NC(=O)c1cccc2c1Oc1ccccc1C2=C1CC2CCC(C1)N2 [Cpd 3]",
    "log10 Ki": 1.47
  },
  {
    "MOLECULE": "CN1C2CCC1CC(=C1c3ccccc3Oc3c(O)cccc31)C2 (single isomer, unassigned) [Cpd 51]",
    "log10 Ki": 2.14
  },
  {
    "MOLECULE": "O=C(N1C2CCC1CC(=C1c3ccccc3Oc3c(O)cccc31)C2)C(F)(F)F (single isomer, unassigned) [Cpd 5]",
    "log10 Ki": 3.75
  },
  {
    "MOLECULE": "Oc1cccc2c1Oc1ccccc1C2=C1CC2CCC(C1)N2Cc1ccccc1 (single isomer, unassigned) [Cpd 46]",
    "log10 Ki": -0.72
  }
]

Recall the reported log10 Ki of NC(=O)c1cccc2c1Sc1ccccc1C2=C1CC2CCC(C1)N2 [Cpd 63] on mu opioid receptor (Rattus norvegicus) and write it down.
0.52

Recall the reported log10 Ki of Oc1cccc2c1Oc1ccccc1C2=C1CC2CCC(C1)N2Cc1ccoc1 [Cpd 25] on mu opioid receptor (Rattus norvegicus) and write it down.
-0.25

Recall the reported log10 Ki of Oc1cccc2c1Oc1ccccc1C2=C1CC2CCC(C1)N2 (single isomer, unassigned) [Cpd 9] on mu opioid receptor (Rattus norvegicus) and write it down.
1.80

Recall the reported log10 Ki of c1ccc(Nc2cccc3c2Oc2ccccc2C3=C2CC3CCC(C2)N3)cc1 [Cpd 64] on mu opioid receptor (Rattus norvegicus) and write it down.
3.38

Recall the reported log10 Ki of Oc1cccc2c1Oc1ccccc1C2=C1CC2CCC(C1)N2Cc1ccoc1 (single isomer, unassigned) [Cpd 58] on mu opioid receptor (Rattus norvegicus) and write it down.
-0.35

Recall the reported log10 Ki of NC(=O)c1cccc2c1Oc1ccccc1C2=C1CC2CCC(C1)N2 (single isomer, unassigned) [Cpd 39] on mu opioid receptor (Rattus norvegicus) and write it down.
1.98

Recall the reported log10 Ki of Oc1cccc2c1Oc1ccccc1C2=C1CC2CCC(C1)N2Cc1ccccn1 [Cpd 21] on mu opioid receptor (Rattus norvegicus) and write it down.
-1.00

###

# EC50 per record follows
TARGET_SYSTEM: hMOR (CHO-hMOR cell membranes) (Homo sapiens, UniProt P35372)
Construct: host or cells: CHO cells expressing hMOR (purchased membranes)
Sequence (P35372 whole entry): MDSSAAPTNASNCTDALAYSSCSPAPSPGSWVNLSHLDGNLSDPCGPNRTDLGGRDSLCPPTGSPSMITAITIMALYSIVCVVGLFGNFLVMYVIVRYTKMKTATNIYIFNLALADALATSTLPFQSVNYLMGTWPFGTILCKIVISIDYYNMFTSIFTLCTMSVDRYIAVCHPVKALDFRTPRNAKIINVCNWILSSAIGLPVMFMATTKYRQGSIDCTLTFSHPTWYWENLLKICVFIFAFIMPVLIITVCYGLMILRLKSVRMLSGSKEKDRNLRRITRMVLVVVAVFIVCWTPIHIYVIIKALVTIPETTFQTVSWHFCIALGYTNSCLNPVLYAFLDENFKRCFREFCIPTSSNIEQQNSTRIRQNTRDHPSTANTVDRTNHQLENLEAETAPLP
EXPERIMENT_DESCRIPTION: [35S]GTPγS binding assay in CHO-hMOR cell membranes
Format: biochemical
Output spec: scalar in µM, unitless text.

Some entries whose results are on file:
[
  {
    "MOLECULE": "Oc1cccc2c1Oc1ccccc1C2=C1CC2CCCC(C1)N2 [Cpd 20]",
    "EC50 [µM]": 7.08
  },
  {
    "MOLECULE": "O=C(NCCc1ccccc1)c1cccc2c1Oc1ccccc1C2=C1CC2CCC(C1)N2 [Cpd 14]",
    "EC50 [µM]": 0.997
  },
  {
    "MOLECULE": "Oc1cccc2c1Oc1ccccc1C2=C1CC2CCC(C1)N2 (racemic) [Cpd 2]",
    "EC50 [µM]": 0.382
  },
  {
    "MOLECULE": "NC(=O)c1cccc2c1Oc1ccccc1C2=C1CC2CCC(C1)N2 [Cpd 3]",
    "EC50 [µM]": 3.96
  }
]

Look up and state reported EC50 for Oc1cccc2c1Oc1ccccc1C2=C1CC2CCC(C1)N2 (single isomer, unassigned) [Cpd 8]
0.902

Look up and state reported EC50 for O=C(NCc1ccccc1)c1cccc2c1Oc1ccccc1C2=C1CC2CCC(C1)N2 [Cpd 13]
0.717

Look up and state reported EC50 for O=C(Nc1ccccc1)c1cccc2c1Oc1ccccc1C2=C1CC2CCC(C1)N2 [Cpd 12]
0.611

Look up and state reported EC50 for Oc1cccc2c1Oc1ccccc1C2=C1CC2CCC(C1)N2Cc1ccoc1 [Cpd 25]
2.81

Look up and state reported EC50 for NC(=O)c1cccc2c1Oc1ccccc1C2=C1CC2CCC(C1)N2 (single isomer, unassigned) [Cpd 37]
0.878

###

TARGET_SYSTEM: hMOR (CHO-hMOR cell membranes) (Homo sapiens, UniProt P35372)
Construct: host or cells: CHO cells expressing hMOR (purchased membranes)
EXPERIMENT_DESCRIPTION: [35S]GTPγS binding assay in CHO-hMOR cell membranes
Assay type: biochemical
EXPERIMENTAL_CONTEXT: CHO-hMOR cell membranes; value in parentheses
MEASURED_PARAMETER: mu GTPγS binding Rel Eff
Field format: numeric only.

Some entries whose results are on file:
[
  {
    "MOLECULE": "O=C(NCc1ccccc1)c1cccc2c1Oc1ccccc1C2=C1CC2CCC(C1)N2 [Cpd 13]",
    "mu GTPγS binding Rel Eff": 0.67
  },
  {
    "MOLECULE": "O=C(Nc1ccccc1)c1cccc2c1Oc1ccccc1C2=C1CC2CCC(C1)N2 [Cpd 12]",
    "mu GTPγS binding Rel Eff": 0.96
  },
  {
    "MOLECULE": "Oc1cccc2c1Oc1ccccc1C2=C1CC2CCC(C1)N2 (racemic) [Cpd 2]",
    "mu GTPγS binding Rel Eff": 0.37
  }
]

Look up and state reported mu GTPγS binding Rel Eff for O=C(NCCc1ccccc1)c1cccc2c1Oc1ccccc1C2=C1CC2CCC(C1)N2 [Cpd 14]
0.54

###

TARGET_SYSTEM: delta opioid receptor (Rattus norvegicus, UniProt P33533)
Construct: the forebrains were homogenized in Tris buffer in a Teflon®-glass homogenizer; from tissue; host or cells: forebrain of male Wistar rats (particulate membrane preparation)
Sequence (P33533 whole entry): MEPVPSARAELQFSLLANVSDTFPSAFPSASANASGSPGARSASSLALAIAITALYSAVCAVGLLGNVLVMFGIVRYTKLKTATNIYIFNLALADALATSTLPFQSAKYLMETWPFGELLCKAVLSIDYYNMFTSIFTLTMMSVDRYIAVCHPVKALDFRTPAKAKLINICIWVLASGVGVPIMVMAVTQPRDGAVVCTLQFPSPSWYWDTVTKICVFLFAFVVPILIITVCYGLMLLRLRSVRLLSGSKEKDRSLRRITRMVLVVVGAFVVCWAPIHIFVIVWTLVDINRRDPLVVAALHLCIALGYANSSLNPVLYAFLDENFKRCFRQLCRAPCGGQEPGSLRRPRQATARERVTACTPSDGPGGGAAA
EXPERIMENT_DESCRIPTION: Rat brain delta opioid receptor binding assay
EXPERIMENTAL_CONTEXT: rDOR (Ki, nM): Rat delta opioid receptor binding constant, rat forebrain membranes; [3H]DPDPE or [3H]naltrindole, 25° C., 2.5 h
Decision: Ki beneath 100 nM gives Satisfied; Ki meeting or exceeding 100 nM gives Not satisfied.

# strict comparison: is reported Ki < 100 nM? input = Oc1cccc2c1Oc1ccccc1C2=C1CC2CCC(C1)N2Cc1ccccn1 (single isomer, unassigned) [Cpd 59]
Satisfied

###

# log10 Ki per record follows
TARGET_SYSTEM: mu opioid receptor (Rattus norvegicus, UniProt P33535)
Construct: the forebrains were homogenized in Tris buffer in a Teflon®-glass homogenizer; from tissue; host or cells: forebrain of male Wistar rats (particulate membrane preparation)
Sequence (P33535 whole entry): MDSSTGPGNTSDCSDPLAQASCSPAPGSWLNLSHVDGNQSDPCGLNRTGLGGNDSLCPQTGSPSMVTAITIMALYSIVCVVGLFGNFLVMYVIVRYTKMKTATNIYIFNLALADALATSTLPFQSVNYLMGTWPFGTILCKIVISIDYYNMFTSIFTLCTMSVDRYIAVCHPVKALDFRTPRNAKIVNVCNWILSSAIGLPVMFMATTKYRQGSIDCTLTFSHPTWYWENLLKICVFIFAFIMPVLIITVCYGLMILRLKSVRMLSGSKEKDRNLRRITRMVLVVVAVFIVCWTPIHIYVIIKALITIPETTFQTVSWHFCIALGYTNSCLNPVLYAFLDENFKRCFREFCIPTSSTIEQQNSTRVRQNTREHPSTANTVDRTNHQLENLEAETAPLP
EXPERIMENT_DESCRIPTION: Rat brain mu opioid receptor binding assay
EXPERIMENTAL_CONTEXT: rat forebrain membranes; [3H]DAMGO, 25° C., 2.5 h; read-out: rMOR (Ki, nM): Rat mu opioid receptor binding constant
Remember, log10 of Ki, in nM.

Some entries whose results are on file:
[
  {
    "SMILES_REPR": "COc1cccc2c1Oc1ccccc1C2=C1CC2CCC(C1)N2",
    "TARGET_SYSTEM": "mu opioid receptor (Rattus norvegicus, UniProt P33535)",
    "MEASURED_PARAMETER": "log10 Ki",
    "MEASURED_NUMBER": 3.25
  },
  {
    "SMILES_REPR": "Oc1cccc2c1Oc1ccccc1C2=C1CC2CCC(C1)N2Cc1cccs1",
    "TARGET_SYSTEM": "mu opioid receptor (Rattus norvegicus, UniProt P33535)",
    "MEASURED_PARAMETER": "log10 Ki",
    "MEASURED_NUMBER": 0.20
  },
  {
    "SMILES_REPR": "Oc1cccc2c1Oc1ccccc1C2=C1CC2CCC(C1)N2Cc1cccc2cnccc12",
    "TARGET_SYSTEM": "mu opioid receptor (Rattus norvegicus, UniProt P33535)",
    "MEASURED_PARAMETER": "log10 Ki",
    "MEASURED_NUMBER": 2.46
  },
  {
    "SMILES_REPR": "Oc1cccc2c1Oc1ccccc1C2=C1CC2CCC(C1)N2Cc1csc2ccccc12",
    "TARGET_SYSTEM": "mu opioid receptor (Rattus norvegicus, UniProt P33535)",
    "MEASURED_PARAMETER": "log10 Ki",
    "MEASURED_NUMBER": 2.23
  },
  {
    "SMILES_REPR": "Oc1cccc2c1Oc1ccccc1C2=C1CC2CCC(C1)N2Cc1ccncc1",
    "TARGET_SYSTEM": "mu opioid receptor (Rattus norvegicus, UniProt P33535)",
    "MEASURED_PARAMETER": "log10 Ki",
    "MEASURED_NUMBER": 2.55
  }
]

Look up and state reported log10 Ki for "Oc1cccc2c1Oc1ccccc1C2=C1CC2CCC(C1)N2CCc1ccccc1"
1.44

Look up and state reported log10 Ki for "Oc1cccc2c1Oc1ccccc1C2=C1CC2CCC(C1)N2CC1CC1"
1.82

Source listed as patent US20090275610A1.
